Tested on: VchCAST RNA-guided transposition machinery (E. coli BL21(DE3) host, lacZ target)
Test: relative integration efficiency (T-LR orientation) vs wild-type transposon end (log2 (normalized fold change)); transposon end mutated: right end (5 bp flank + 75 bp right end); higher = more efficient transposition
Decide using relative integration efficiency (log2): a value greater than or equal to -3 is true (1), a smaller one is false (0).

sequence_data	label_class
ACATTTGTTGATACAACCATTAAATGATAATTCCACCCATACATTGATAATTATCACACCCAATTTAACTATAACGCTCTGATCATAGTCAGACCAACATTGCTACGACCCGTATTCGCACCGACAC	true (1)
ACATTTGTTGATACAACCATACCCTGATAATTACACCCATACCGTGATAATTATCACACCCATACCGTGATATTGCCTCTGATCATAGTCAGACCAACATTGCTACGACCCGTATTCGCACCGACAC	true (1)
ACATTGGTTGATACAACCATAAAATGATAATTACACCCATAAATTCATCATTATCACACCCAATTTAACTATAACGCTCTGATCATAGTCAGACCAACATTGCTACGACCCGTATTCGCACCGACAC	false (0)
ACATTTGTTGATACACCCATAAATTGATAATTACAACCATAAAATGATAATTATCACACCCATAAATTGATAATTACTCTGATCATAGTCAGACCAACATTGCTACGACCCGTATTCGCACCGACAC	true (1)
ACATTTCTTCATACAACCATAAAATGATAATTACACCCATAAATTCATCATTATCACACCCAATTTAACTATAACGCTCTGATCATAGTCAGACCAACATTGCTACGACCCGTATTCGCACCGACAC	false (0)
